test: chemical genetic growth profiling, strain panel (AID 1159580);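 also: tested at 20 µM; growth read once vehicle control cultures reached saturation at 30 °C; 1 = growth at the plate median or of vehicle wells; lower values mean less growth of the strain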; conditions: S. cerevisiae deletion strains, growth OD, locus YNL175C, strain NOP13, active compounds read low
Among all 5,500 compounds or so, about 2,000 (36%) were called active. Inconclusive results (about 18%) are left out. This is one part of the list.
Property name: normalized growth
// no unit string in output, number only

// lookup normalized growth for CC(=O)OCC1=C(C(=O)O)N2C(=O)C(NC(=O)Cc3cccs3)C2SC1 (stereo not given)
1.01

Another compound to look at: O=C1Nc2ccc(I)cc2/C1=C/c1cc(Br)c(O)c(Br)c1
0.922

Another compound to look at: N[C@@H](Cn1oc(=O)[nH]c1=O)C(=O)O
0.99

Another compound to look at: COc1ccc(C(=O)N2CCCC2=O)cc1
1

Another compound to look at: S=C(Nc1ccccc1)Nc1nccs1
0.999
